ASSAY_METRIC: melting point

For reference, reported melting point for CC(=O)OC1CCC2(C)C(=CCC3C4CCC(=O)C4(C)CC(OC(C)=O)C32)C1 (centres undefined) stands at 177 to 179 °C

For reference, reported melting point for CCc1nn(-c2ccc(C(=N)N)cc2)c(=O)n1-c1ccc(CCC(=O)OC(C)C)cc1 stands at > 250 °C

For reference, reported melting point for CCOC(=O)c1ncn2c1[C@@H]1CCCN1C(=S)c1ccccc1-2 stands at 227 to 229 °C

For reference, reported melting point for Cc1nc2c(-c3cccc(N4C[C@@H](C)O[C@@H](C)C4)c3)cnn2c(N)c1-c1cccc(Cl)c1 stands at 165 to 167 °C

For reference, reported melting point for CN1Cc2c(NC(=O)OCc3ccccc3)ncn2-c2ccccc2C1=O stands at 246 to 247 °C

For reference, reported melting point for COc1ccc2cc(CC(O)C(C)=O)ccc2c1 (centres undefined) stands at 107 to 110 °C

For reference, reported melting point for O=C(O)CCCn1c(=O)c2ccccc2n(CCCCN2CCC(OC(c3ccccc3)c3ccccc3)CC2)c1=O stands at 132 to 133 °C

For reference, reported melting point for CCSc1cc(C)nc(SCC)c1NC(=O)CCCSc1nc2c(C)c(Cl)cc(C(C)C)c2o1 stands at 122 to 123 °C

For reference, reported melting point for O=C(NNS(=O)(=O)c1ccccc1)c1ccc(NCc2ccccc2)cc1 stands at 214 to 215 °C

For reference, reported melting point for O=C1Nc2ccc(C(F)(F)F)cc2C1c1ncnc2nn(C3CCCCC3)cc12 (centres undefined) stands at > 300 °C

For reference, reported melting point for COc1cc(CO)ccc1OCc1nc(-c2ccccc2)sc1C stands at 134 to 135 °C

For reference, reported melting point for Cn1nnnc1CC(=S)NCCc1ccc(OCc2ccccc2)c(OCc2ccccc2)c1 stands at 110 °C

For reference, reported melting point for OC1CSC(Oc2cccnc2Br)C(O)C1O (centres undefined) stands at 151 °C

For reference, reported melting point for Cc1c(-c2ccc(O)cc2)n(Cc2ccc(OCCN(C(C)C)C(C)C)cc2)c2ccc(O)cc12 stands at 96 to 102 °C

For reference, reported melting point for COCOc1ccc(C(=O)COc2cc(OCc3ccccc3)ccc2CO)c(OCc2ccccc2)c1 stands at 115 to 118 °C

For reference, reported melting point for O=C(O)c1cnn(CCCCN2CCN(c3ncccn3)CC2)c1 stands at 104 to 105 °C

For reference, reported melting point for CCOCCOCCOCCOc1cc(OCCCCCCCCCCCCOc2ccccc2)cc(N(CC(=O)OC)CC(=O)OC)c1 stands at < 24 °C

For reference, reported melting point for OC(COc1ccc(F)c(F)c1)CN1CCC(NCc2nc3ccccc3s2)CC1 (single isomer, unassigned; (+)) stands at 65.8 °C

For reference, reported melting point for COC(=O)N1C=C(C=O)CC([C@@H]2CCCN2C)=C1 stands at 78 to 80 °C
